Test system: EKVX
Assay: NCI tumour cell line growth inhibition, 48 h
The source made the active and inactive calls. No stated cut-off is given here; in the data, active = GI50 up to about 1.1 µM and inactive = higher.
# valid calls are True = active, False = inactive; nothing else

See these solved cases before continuing.
compound	assigned label
C1=Cc2ccccc2C1.C=C(C)c1ccccc1.[N-]=[N+]=Nc1ccccc1	False
CC(=O)NC1C(OCc2ccccc2)OC(CO)C(O)C1OCC(=O)NC(C(=O)NC(CCC(=O)NCCCCCC(=O)Nc1ccc2c(c1)CN1C(=O)c3ccccc3C1=N2)C(N)=O)C(C)C (centres undefined)	False
Oc1ccc2c3c1OC1C(=NN=C4CCC5(O)C6Cc7ccc(O)c8c7C5(CCN6CC5CC5)C4O8)CCC4(O)C(C2)N(CC2CC2)CCC314 (centres undefined)	False
CCOC(=O)c1c(NC(=O)OC)c(C#N)c2n1CCCCC2	False
O=C(NN1CCCCC1)c1cc2cc(CCl)ccc2oc1=O	False
COc1ccc(/C=C(\C(=C/c2ccc(OC)cc2)[N+](=O)[O-])[N+](=O)[O-])cc1	False
CN(CCO)CCCC1COc2ccccc2O1 (centres undefined)	False
CNC1C(O)C(NC)C2OC3(O)C(=O)CC(C)OC3OC2C1O (centres undefined)	False

Turning now to a further record.
q: Recorded test call requested for CC(=O)OC1(C)CC(C)C(=O)C(C(O)CC2CC(=O)NC(=O)C2)C1 (centres undefined)
a: True

----------
Test system: T47D
Assay: NCI tumour cell line growth inhibition, 48 h
Calls of active or inactive are those of the source. No stated cut-off is given here; in the data, active = GI50 up to about 1.1 µM and inactive = higher.
Reported GI50 by item:

>>> df
                                   compound  observed_measurement
0  Cc1c(/C=N\NC(=S)N2CCN(C(=S)N/N=C\c3c(C)n(C)n(-c4ccccc4)c3=O)CC2)c(=O)n(-c2ccccc2)n1C    36.1 µM (inactive)

Now look at this entry.
q: Query GI50 for O=c1ccc2ccc(O)cc2o1
a: > 100 µM (inactive)

----------
System: RXF 393
Experiment: NCI tumour cell line growth inhibition, 48 h
Activity calls are given as the source filed them. Cut-off read from the data, not from the text of the source: active = GI50 up to about 1.1 µM and inactive = higher.
Allowed answers: True = active, False = inactive

In [3]: df
Out[3]:
                        compound  system_under_test  assigned_label
0  Cc1noc(NC(=O)Nc2ccccc2F)c1C#N            RXF 393           False

q: Query: recorded result category for Cc1ccccc1N/N=C1\C(=O)Nc2ccccc21 in this test
a: False

q: What outcome does the record of this test show for CCOC(=O)/C=C(\C)c1ccc(Cl)cc1 ?
a: False

q: // param item: O=Cc1ccc2c(c1)CC1(C2)Cc2ccc3c(c2C1)CCC3 (configuration not stated) ; yields the recorded call
a: False

q: Record request — test call for CC(=O)/N=C1\NC(=O)/C(=C/c2ccc(/C=C3/C(=O)N/C(=N\C(C)=O)N3C)cc2)N1C
a: False

q: For Cc1cc(C)n(-c2c(O)ccc(O)c2-n2nc(C)cc2C)n1 , which call appears in the assay record?
a: False

q: State the result this test recorded for COC(=O)CCSC(=O)Nc1ccc(/N=N/c2ccccc2)cc1 .
a: False

----------
Test system: MCF7
Assay: NCI tumour cell line growth inhibition, 48 h
Calls of active or inactive are those of the source. No stated cut-off is given here; in the data, active = GI50 up to about 1.1 µM and inactive = higher.
# valid calls are active, inactive; nothing else

Field: example entries. Status: answers known.
molecule	system under test	assigned label
COC(=O)C(C)(C)OCc1ccc(C2NC(=O)N(c3cccc(Cl)c3)C(=O)N2c2cccc(Cl)c2)cc1 (stereo unspecified)	MCF7	inactive
O=c1ccc2ccc(O)cc2o1	MCF7	inactive
CC(C)NC(=O)OCc1c(COC(=O)NC(C)C)c(-c2ccc[n+](COC(=O)C(C)C)c2)n2c1CCC2	MCF7	inactive
CCOC(=O)[C@H](C)OC(=O)[C@@](C)(NC(=O)c1ccccc1C(=O)OC)[C@@H]1NC=C(C(=O)OC)CS1	MCF7	inactive
O=C(c1ccc([N+](=O)[O-])cc1)N1CCCC1	MCF7	inactive

q: Outcome logged for COc1ccc2c(c1)nc1n2C(c2c(F)cccc2F)SC1 (stereo unspecified) in this assay:
a: inactive

q: For this molecule, state the assay outcome: CC1=CC(C)C(O)C(C)/C=C\C(O)C/C=C(/C)C(=O)CC(O)C(C)\C=C/C=C\C=C/C(=O)NC2=C(O)C(=O)c3c(cc(C)c(O)c3C1=O)C2=O (stereo unspecified)
a: inactive

q: How did this test come out for CC(=O)OC[C@@H]1[C@H]2CC[C@]3(C)[C@@H](OC(C)=O)CC[C@H]3[C@@H]2CC[C@H]1C1(C)SCCS1 ?
a: inactive

q: Hello, I am checking results. What call was entered for O=C(/C=C/c1ccc(O)c(O)c1)OCCc1cccc2ccccc12 ?
a: inactive

q: Fill in: this test's call for CC[C@@]1(O)C(=O)OCc2c1cc1n(c2=O)Cc2cc3c(NC(=O)CN)cccc3nc2-1 is ___
a: active

q: In this assay, the call recorded for COc1ccc(C(=O)Nc2ccc3oc(-c4ccccc4)nc3c2)cc1 was what?
a: inactive

q: Tell me the recorded outcome of this test for CSc1c(C#N)c(=O)n(N)c2c1c(C)nn2-c1ccccc1 .
a: inactive

q: Could you check what this test reported for O=C(CCCn1ccnc1[N+](=O)[O-])NCCn1cncc1[N+](=O)[O-] ?
a: inactive

q: For this molecule, state the assay outcome: CC[C@H](CCCCC1CC[C@@H]2CC(=O)C[C@H]12)OC (stereo partly specified)
a: inactive

q: Can you look up the reported call for COC1(CCO)CC=CCC1(CCO)OC (stereo unspecified) for me?
a: inactive

q: Look up the recorded call for O=CN1CCN(CC(O)CN2CCCCC2)CC1 (stereo unspecified) in this test.
a: inactive
